- Experimental system: T1, natriuretic peptide receptor-B (human)
- T1 chain: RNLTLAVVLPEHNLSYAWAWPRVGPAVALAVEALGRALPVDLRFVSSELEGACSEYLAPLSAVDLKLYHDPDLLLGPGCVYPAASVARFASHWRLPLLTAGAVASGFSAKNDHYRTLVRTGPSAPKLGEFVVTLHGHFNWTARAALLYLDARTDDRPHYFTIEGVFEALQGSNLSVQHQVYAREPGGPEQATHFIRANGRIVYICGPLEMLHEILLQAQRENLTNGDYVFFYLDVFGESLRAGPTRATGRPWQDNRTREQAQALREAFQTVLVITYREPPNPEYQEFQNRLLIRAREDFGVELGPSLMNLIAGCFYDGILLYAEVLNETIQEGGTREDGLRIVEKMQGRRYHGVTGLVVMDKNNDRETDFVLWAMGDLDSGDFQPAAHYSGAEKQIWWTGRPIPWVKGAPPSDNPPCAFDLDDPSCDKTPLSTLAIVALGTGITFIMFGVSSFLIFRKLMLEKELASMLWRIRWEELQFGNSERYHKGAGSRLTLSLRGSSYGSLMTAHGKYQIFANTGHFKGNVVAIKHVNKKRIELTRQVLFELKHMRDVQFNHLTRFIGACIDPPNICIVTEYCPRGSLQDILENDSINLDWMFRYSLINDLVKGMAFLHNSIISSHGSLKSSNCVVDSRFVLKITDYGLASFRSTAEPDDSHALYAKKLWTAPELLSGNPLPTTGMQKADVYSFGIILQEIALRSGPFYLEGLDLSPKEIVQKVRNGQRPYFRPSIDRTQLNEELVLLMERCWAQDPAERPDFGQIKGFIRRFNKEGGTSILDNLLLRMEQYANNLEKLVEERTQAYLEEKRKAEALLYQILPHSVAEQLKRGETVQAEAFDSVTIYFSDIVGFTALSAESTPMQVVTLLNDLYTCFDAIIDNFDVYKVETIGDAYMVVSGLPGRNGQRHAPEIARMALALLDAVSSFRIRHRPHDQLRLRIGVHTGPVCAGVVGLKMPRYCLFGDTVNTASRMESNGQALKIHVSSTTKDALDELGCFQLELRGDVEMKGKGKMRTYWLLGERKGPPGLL
- Test details: cell-based or functional assay
Numbered stars: 1 amine (or outer) side, 2 acyl side, 3 side chain; on linkers, the order of the positions; unused ones are H or OH. Square brackets hold non-standard residues; d marks the D form. Ends that are not written are not given here. * marks the point of attachment. Pro(trans-4-NH2) = O=C([C@@H]1C[C@@H](N[*:3])CN1[*:1])[*:2]; 6071‑OH = rac-6-hydroxy-decanoic acid, CCCCC(O)CCCCC(=O)*; Sni = (S)-nipecotic acid, O=C([C@H]1CCCN([*:1])C1)[*:2]; Phe(3-Cl) = N[C@@H](Cc1cccc(Cl)c1)C(=O)O; Cya = N[C@@H](CS(=O)(=O)O)C(=O)O; Hyp = O=C(O)[C@@H]1C[C@@H](O)CN1; AR‑385‑008 = not defined here; NMeL = CN[C@@H](CC(C)C)C(=O)O; orn(Me2) = not defined here; Octanoyl = CCCCCCCC(=O)*; 873 = not defined here; Che = not defined here; Hexanoyl = CCCCCC(=O)*; Oct = not defined here; leu = not defined here; Occ = octanoic acid
Assay metric: EC50 group, cGMP in GTM-3 cells

The reported value for {6071‑OH}-FRL[Hyp][NMeL]DRI-NH2 (not fully specified (some residues); printed as (6071-OH)-Phe-arg-Leu-Hyp-Nml-Asp-Arg-Ile-NH2) [JAL-1259] in terms of EC50 group, cGMP in GTM-3 cells is ≤ 15 µM

The reported value for Octanoyl-AAFGLKLDR[873] (not fully specified (some residues); printed as Occ-ala-ala-Phe-Gly-Leu-Lys-Leu-Asp-Arg-873; reading uncertain) [JAL-0824] in terms of EC50 group, cGMP in GTM-3 cells is ≤ 15 µM

The reported value for [Oct][Sni]F[leu]L[Pro(trans-4-NH2)][NMeL]DR[Che] (reading uncertain; also: printed as Oct-Sni-Phe-leu-Leu-Tap-Nml-Asp-Arg-Che) [JAL-1843] in terms of EC50 group, cGMP in GTM-3 cells is ≤ 1 µM

The reported value for [AR‑385‑008][leu]L[Hyp][NMeL]DRI-NH2 (reading uncertain; also: printed as (AR-385-008)-leu-Leu-Hyp-Nml-Asp-Arg-Ile-NH2) [JAL-1873] in terms of EC50 group, cGMP in GTM-3 cells is ≤ 15 µM

The reported value for Octanoyl-[dA]F[dR]L[Hyp]LDRI-NH2 [JAL-1047] in terms of EC50 group, cGMP in GTM-3 cells is ≤ 1 µM

The reported value for Hexanoyl-S[dA]FGLKLDRISS-NH2 [JAL-0535] in terms of EC50 group, cGMP in GTM-3 cells is ≤ 15 µM

The reported value for Octanoyl-[Sni][Phe(3-Cl)][dL]L[Hyp][NMeL]DRI-NH2 (not fully specified; printed as Occ-Sni-Mcf-leu-Leu-Hyp-Nml-Asp-Arg-Ile-NH2) [JAL-1618] in terms of EC50 group, cGMP in GTM-3 cells is ≤ 1 µM

The reported value for [Occ][Sni]F[orn(Me2)]L[Hyp][NMeL][Cya]RI-NH2 (reading uncertain; also: printed as Occ-Sni-Phe-orn(Me2)-Leu-Hyp-Nml-Cya-Arg-Ile-NH2) [JAL-1923] in terms of EC50 group, cGMP in GTM-3 cells is ≤ 5 µM

The reported value for Octanoyl-AFLL[Pro(trans-4-NH2)]DRI-NH2 (not fully specified (some residues); printed as Occ-ala-Phe-leu-Leu-Tap-Asp-Arg-Ile-NH2) [JAL-1251] in terms of EC50 group, cGMP in GTM-3 cells is ≤ 1 µM
